- ASSAY_SYSTEM: Metabotropic glutamate receptor 5 (Rattus norvegicus) (UniProt P31424)
- Sequence (P31424 21-1203 limits assumed): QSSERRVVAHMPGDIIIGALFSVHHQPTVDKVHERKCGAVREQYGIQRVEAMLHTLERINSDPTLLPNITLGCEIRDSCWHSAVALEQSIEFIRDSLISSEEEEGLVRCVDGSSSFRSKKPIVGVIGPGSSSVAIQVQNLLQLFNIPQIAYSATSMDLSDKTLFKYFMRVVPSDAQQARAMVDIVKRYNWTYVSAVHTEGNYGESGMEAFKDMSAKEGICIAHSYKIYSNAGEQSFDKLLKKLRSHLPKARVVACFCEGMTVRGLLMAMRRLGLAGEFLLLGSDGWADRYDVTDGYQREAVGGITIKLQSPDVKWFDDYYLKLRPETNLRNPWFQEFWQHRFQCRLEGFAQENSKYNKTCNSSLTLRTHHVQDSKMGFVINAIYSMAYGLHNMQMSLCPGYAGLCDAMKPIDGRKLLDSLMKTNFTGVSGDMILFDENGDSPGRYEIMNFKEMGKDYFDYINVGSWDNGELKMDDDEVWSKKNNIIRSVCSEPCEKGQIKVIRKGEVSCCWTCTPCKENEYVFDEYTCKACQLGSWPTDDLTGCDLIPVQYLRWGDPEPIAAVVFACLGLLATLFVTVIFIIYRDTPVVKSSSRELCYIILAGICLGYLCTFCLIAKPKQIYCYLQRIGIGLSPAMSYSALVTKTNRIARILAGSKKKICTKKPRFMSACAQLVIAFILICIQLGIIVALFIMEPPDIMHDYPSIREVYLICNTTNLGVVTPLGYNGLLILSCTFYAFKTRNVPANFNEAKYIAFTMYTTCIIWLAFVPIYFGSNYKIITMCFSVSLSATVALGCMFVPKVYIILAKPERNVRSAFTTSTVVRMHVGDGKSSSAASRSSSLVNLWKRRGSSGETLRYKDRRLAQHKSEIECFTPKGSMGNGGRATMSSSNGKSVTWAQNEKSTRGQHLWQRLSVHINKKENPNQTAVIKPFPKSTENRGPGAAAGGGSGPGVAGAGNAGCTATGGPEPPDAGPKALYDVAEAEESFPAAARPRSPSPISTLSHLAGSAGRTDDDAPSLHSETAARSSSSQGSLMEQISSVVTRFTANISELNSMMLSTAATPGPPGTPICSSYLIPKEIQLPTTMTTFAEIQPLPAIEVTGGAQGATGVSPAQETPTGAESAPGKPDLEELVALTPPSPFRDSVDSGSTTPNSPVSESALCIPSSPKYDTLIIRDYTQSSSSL
- ASSAY_METHOD_TEXT: Fold potentiation towards rat metabotropic glutamate receptor 5
- Assay type: functional
OBSERVED_PROPERTY: Potentiation

Solved entries (count: 5):
{"columns": ["CHEMICAL_STRING", "Potentiation"],
 "data": [
  ["O=C(Nc1cc(-c2ccccc2)nn1-c1ccccc1)c1cnccn1", 4.8],
  ["O=C(Nc1cc(-c2ccccc2)nn1-c1ccccc1)c1ccc(F)c(F)c1", 6.4],
  ["Cc1cccc(C(=O)Nc2cc(-c3ccccc3)nn2-c2ccccc2)c1", 9.4],
  ["O=C(Nc1cc(-c2ccccc2)nn1-c1ccccc1)c1ccc(C(F)(F)F)cc1", 6.8],
  ["O=C(Nc1cc(-c2ccccc2)nn1-c1ccccc1)c1ccsc1", 3.7]
]}

I = O=C(Nc1cc(-c2ccccc2)nn1-c1ccccc1)c1cccc(F)c1
II = O=C(Nc1cc(-c2ccccc2)nn1-c1ccccc1)c1cccc(Cl)c1
**Q:** Lab log: flag the item ( I or II ) with the smaller Potentiation figure. Mark your answer with the label of the selected entry.
**A:** II

P = N#Cc1cccc(C(=O)Nc2cc(-c3ccccc3)nn2-c2ccccc2)c1
Q = O=C(Nc1cc(-c2ccccc2)nn1-c1ccccc1)c1ccccc1O
**Q:** Lab log: flag the item ( P or Q ) with the smaller Potentiation figure. Mark your answer with the label of the selected entry.
**A:** Q

###

- ASSAY_SYSTEM: Metabotropic glutamate receptor 5 (Rattus norvegicus, UniProt P31424)
- Sequence (P31424 whole entry): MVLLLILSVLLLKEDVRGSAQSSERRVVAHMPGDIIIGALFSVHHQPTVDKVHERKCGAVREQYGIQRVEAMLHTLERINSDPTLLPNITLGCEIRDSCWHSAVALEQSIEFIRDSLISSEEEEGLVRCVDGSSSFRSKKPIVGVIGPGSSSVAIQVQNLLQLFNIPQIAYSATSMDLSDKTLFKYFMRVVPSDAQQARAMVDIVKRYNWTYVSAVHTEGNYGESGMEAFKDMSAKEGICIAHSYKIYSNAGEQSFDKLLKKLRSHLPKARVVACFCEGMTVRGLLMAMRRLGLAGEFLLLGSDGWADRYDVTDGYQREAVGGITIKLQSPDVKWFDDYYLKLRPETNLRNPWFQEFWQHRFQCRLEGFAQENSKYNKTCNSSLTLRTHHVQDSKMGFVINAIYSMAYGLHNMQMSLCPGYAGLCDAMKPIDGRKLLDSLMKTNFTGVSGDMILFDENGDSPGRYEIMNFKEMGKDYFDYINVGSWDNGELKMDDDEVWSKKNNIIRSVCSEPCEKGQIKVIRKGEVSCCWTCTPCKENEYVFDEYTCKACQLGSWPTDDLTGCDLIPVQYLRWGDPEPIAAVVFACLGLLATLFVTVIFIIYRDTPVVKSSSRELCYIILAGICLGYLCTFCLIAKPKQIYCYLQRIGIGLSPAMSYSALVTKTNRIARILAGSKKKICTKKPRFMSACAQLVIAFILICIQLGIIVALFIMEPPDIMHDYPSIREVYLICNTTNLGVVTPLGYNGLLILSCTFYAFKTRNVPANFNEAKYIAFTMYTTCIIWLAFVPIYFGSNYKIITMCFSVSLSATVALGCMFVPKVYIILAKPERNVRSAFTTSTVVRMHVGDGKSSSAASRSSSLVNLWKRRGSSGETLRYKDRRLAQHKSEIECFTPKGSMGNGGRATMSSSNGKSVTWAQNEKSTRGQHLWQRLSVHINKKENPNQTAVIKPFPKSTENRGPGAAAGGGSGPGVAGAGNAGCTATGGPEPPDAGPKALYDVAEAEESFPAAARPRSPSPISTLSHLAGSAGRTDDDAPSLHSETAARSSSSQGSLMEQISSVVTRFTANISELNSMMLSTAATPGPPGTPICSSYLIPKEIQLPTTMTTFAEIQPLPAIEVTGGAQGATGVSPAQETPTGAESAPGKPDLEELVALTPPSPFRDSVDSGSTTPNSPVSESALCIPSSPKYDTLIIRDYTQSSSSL
- ASSAY_METHOD_TEXT: Effective concentration against metabotropic glutamate receptor 5 of rat
pEC50: −log10 of the molar value.
OBSERVED_PROPERTY: pEC50

Solved entries (count: 4):
{"columns": ["CHEMICAL_STRING", "pEC50"],
 "data": [
  ["O=C(Nc1cc(-c2ccccc2)nn1-c1ccccc1)c1ccc(F)cc1", 7.30],
  ["O=C(Nc1cc(-c2ccccc2)nn1-c1ccccc1)c1ccccc1", 6.52],
  ["Cc1ccc(C(=O)Nc2cc(-c3ccccc3)nn2-c2ccccc2)cc1", 7.40],
  ["O=C(Nc1cc(-c2ccccc2)nn1-c1ccccc1)c1ccccn1", 6.23]
]}

P = O=C(Nc1cc(-c2ccccc2)nn1-c1ccccc1)c1cccc(Cl)c1
Q = Cc1cccc(C(=O)Nc2cc(-c3ccccc3)nn2-c2ccccc2)c1
**Q:** Lab log: flag the item ( P or Q ) with the smaller pEC50 figure. Mark your answer with the label of the selected entry.
**A:** P
(P: 6.70, Q: 7.00)

###

- ASSAY_SYSTEM: Metabotropic glutamate receptor 5 (Homo sapiens, UniProt P41594)
- Sequence (P41594 21-1212 limits assumed): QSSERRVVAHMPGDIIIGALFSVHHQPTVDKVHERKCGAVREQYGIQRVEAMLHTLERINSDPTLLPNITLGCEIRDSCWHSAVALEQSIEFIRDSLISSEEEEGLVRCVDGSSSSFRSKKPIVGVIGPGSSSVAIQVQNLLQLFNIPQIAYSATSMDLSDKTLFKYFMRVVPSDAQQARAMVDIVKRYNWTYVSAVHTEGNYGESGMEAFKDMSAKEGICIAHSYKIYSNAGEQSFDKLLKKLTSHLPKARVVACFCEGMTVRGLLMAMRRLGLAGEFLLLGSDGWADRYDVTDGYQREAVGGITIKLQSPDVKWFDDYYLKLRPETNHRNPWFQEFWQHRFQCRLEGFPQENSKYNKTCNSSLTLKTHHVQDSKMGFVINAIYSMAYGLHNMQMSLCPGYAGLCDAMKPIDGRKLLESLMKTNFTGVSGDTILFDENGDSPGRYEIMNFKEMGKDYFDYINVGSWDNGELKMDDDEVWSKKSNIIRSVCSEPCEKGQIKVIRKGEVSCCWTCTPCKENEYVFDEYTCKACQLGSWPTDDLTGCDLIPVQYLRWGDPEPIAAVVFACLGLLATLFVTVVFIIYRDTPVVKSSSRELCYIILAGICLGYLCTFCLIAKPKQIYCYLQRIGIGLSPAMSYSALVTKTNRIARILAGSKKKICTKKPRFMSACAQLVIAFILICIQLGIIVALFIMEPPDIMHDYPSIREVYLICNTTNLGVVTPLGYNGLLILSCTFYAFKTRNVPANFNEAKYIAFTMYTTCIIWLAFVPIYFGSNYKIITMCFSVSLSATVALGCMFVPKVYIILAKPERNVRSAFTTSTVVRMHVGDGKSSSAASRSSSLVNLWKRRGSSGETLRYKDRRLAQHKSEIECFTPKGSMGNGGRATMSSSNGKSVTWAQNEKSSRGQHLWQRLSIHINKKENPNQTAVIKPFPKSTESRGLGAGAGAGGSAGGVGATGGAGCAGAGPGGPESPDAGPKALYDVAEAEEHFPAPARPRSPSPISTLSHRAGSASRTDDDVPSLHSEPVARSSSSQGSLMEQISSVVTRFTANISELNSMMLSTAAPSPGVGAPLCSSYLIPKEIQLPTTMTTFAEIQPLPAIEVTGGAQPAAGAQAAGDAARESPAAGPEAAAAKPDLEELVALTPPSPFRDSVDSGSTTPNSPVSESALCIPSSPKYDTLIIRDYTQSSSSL
- ASSAY_METHOD_TEXT: Fold potentiation in CHO cells overexpressing human metabotropic glutamate receptor 5
- Type: functional, cell-based
OBSERVED_PROPERTY: Potentiation

Solved entries (count: 3):
{"columns": ["CHEMICAL_STRING", "OBSERVED_VALUE"],
 "data": [
  ["O=C(Nc1cc(-c2ccccc2)nn1-c1ccccc1)c1ccccc1", 5],
  ["Cc1ccccc1C(=O)Nc1cc(-c2ccccc2)nn1-c1ccccc1", 0.9],
  ["O=C(Nc1cc(-c2ccccc2)nn1-c1ccccc1)c1cnccn1", 4.3]
]}

1 = O=C(Nc1cc(-c2ccccc2)nn1-c1ccccc1)c1ccc(F)c(F)c1
2 = O=C(Nc1cc(-c2ccccc2)nn1-c1ccccc1)c1ccc(Cl)cc1
3 = Cc1ccc(C(=O)Nc2cc(-c3ccccc3)nn2-c2ccccc2)cc1
4 = O=C(Nc1cc(-c2ccccc2)nn1-c1ccccc1)c1ccccc1O
**Q:** Arrange by Potentiation, high to low. Could you list the labels in the order requested?
**A:** 3, 2, 1, 4
(3: 9, 2: 5, 1: 2.6, 4: 0.9)

1 = O=C(Nc1cc(-c2ccccc2)nn1-c1ccccc1)c1ccc(F)cc1
2 = O=C(Nc1cc(-c2ccccc2)nn1-c1ccccc1)c1ccccc1F
**Q:** Which record would sort first by descending Potentiation, 1 or 2 ? Mark your answer with the label of the selected entry.
**A:** 2

P = Fc1cccc(/C=N/N=C/c2cccc(F)c2)c1
Q = O=C(Nc1cc(-c2ccccc2)nn1-c1ccccc1)c1ccc(C(F)(F)F)cc1
R = Cc1cccc(C(=O)Nc2cc(-c3ccccc3)nn2-c2ccccc2)c1
**Q:** Write the entries in order, lowest recorded Potentiation first. Could you list the labels in the order requested?
**A:** P, Q, R

a = O=C(Nc1cc(-c2ccccc2)nn1-c1ccccc1)c1ccsc1
b = O=C(Nc1cc(-c2ccccc2)nn1-c1ccccc1)c1ccccn1
c = O=C(Nc1cc(-c2ccccc2)nn1-c1ccccc1)c1cccc(Cl)c1
**Q:** Arrange by Potentiation, high to low. Could you list the labels in the order requested?
**A:** c, b, a
(c: 5.4, b: 3.6, a: 2.5)

###

- ASSAY_SYSTEM: Metabotropic glutamate receptor 5 (Rattus norvegicus)
- ASSAY_METHOD_TEXT: Fold potentiation towards rat metabotropic glutamate receptor 5
- Assay type: functional
OBSERVED_PROPERTY: Potentiation

Solved entries (count: 2):
{"columns": ["CHEMICAL_STRING", "OBSERVED_PROPERTY", "OBSERVED_VALUE"],
 "data": [
  ["Cc1ccc(C(=O)Nc2cc(-c3ccccc3)nn2-c2ccccc2)cc1", "Potentiation", 10.9],
  ["O=C(Nc1cc(-c2ccccc2)nn1-c1ccccc1)c1ccccc1F", "Potentiation", 6.3]
]}

1 = O=C(Nc1cc(-c2ccccc2)nn1-c1ccccc1)c1ccc(Cl)cc1
2 = O=C(Nc1cc(-c2ccccc2)nn1-c1ccccc1)c1ccc(F)cc1
**Q:** Lab log: flag the item ( 1 or 2 ) with the smaller Potentiation figure. Mark your answer with the label of the selected entry.
**A:** 1

###

- ASSAY_SYSTEM: Metabotropic glutamate receptor 5 (Rattus norvegicus, UniProt P31424)
- ASSAY_METHOD_TEXT: Effective concentration against metabotropic glutamate receptor 5 of rat
OBSERVED_PROPERTY: EC50 (nM)

Solved entries (count: 4):
{"columns": ["CHEMICAL_STRING", "OBSERVED_PROPERTY", "OBSERVED_VALUE"],
 "data": [
  ["O=C(Nc1cc(-c2ccccc2)nn1-c1ccccc1)c1ccc(F)c(F)c1", "EC50", 20],
  ["O=C(Nc1cc(-c2ccccc2)nn1-c1ccccc1)c1ccc(C(F)(F)F)cc1", "EC50", 20],
  ["O=C(Nc1cc(-c2ccccc2)nn1-c1ccccc1)c1cccs1", "EC50", 400],
  ["O=C(Nc1cc(-c2ccccc2)nn1-c1ccccc1)c1ccc(Cl)cc1", "EC50", 100]
]}

P = O=C(Nc1cc(-c2ccccc2)nn1-c1ccccc1)c1cnccn1
Q = O=C(Nc1cc(-c2ccccc2)nn1-c1ccccc1)c1ccsc1
R = O=C(Nc1cc(-c2ccccc2)nn1-c1ccccc1)c1ccccc1F
**Q:** Arrange by EC50, high to low. Could you list the labels in the order requested?
**A:** Q, P, R

###

- ASSAY_SYSTEM: Metabotropic glutamate receptor 5 (Homo sapiens)
- ASSAY_METHOD_TEXT: Fold potentiation in CHO cells overexpressing human metabotropic glutamate receptor 5
- Assay type: functional, cell-based
OBSERVED_PROPERTY: Potentiation

{"columns": ["CHEMICAL_STRING", "Potentiation"],
 "data": [
  ["O=C(Nc1ccc(Br)cc1CN1C(=O)c2ccccc2C1=O)c1ccccn1", 6],
  ["O=C(Nc1ccc(Cl)cc1CN1C(=O)c2ccccc2C1=O)c1ccccn1", 7],
  ["O=C(Nc1cc(-c2ccccc2)nn1-c1ccccc1)c1cccc(F)c1", 2.6],
  ["N#Cc1cccc(C(=O)Nc2cc(-c3ccccc3)nn2-c2ccccc2)c1", 4]
]}

1 = O=C(Nc1cc(-c2ccccc2)nn1-c1ccccc1)c1cccs1
2 = O=C(Nc1ccc(Cl)cc1CN1C(=O)c2ccccc2C1=O)c1ccccc1O
**Q:** Lab log: flag the item ( 1 or 2 ) with the smaller Potentiation figure. Mark your answer with the label of the selected entry.
**A:** 1
